# pIC50 listing for each entry below
# Tested on: HeLa
# experimental_details: Cytotoxicity against human HeLa cells assessed as cell viability after 48 hrs by MTT assay
# Format: functional, cell-based
pIC50: −log10 of the molar value.
recorded_endpoint: pIC50

[[record]]
smiles_entry = "CC1=C(CO)C(=O)O[C@@H]([C@@H](C)[C@H]2CC[C@H]3[C@@H]4C[C@H]5O[C@]56[C@@H](O)CCC(=O)[C@]6(C)[C@H]4CC[C@]23C)C1"
target_entity = "HeLa"
recorded_endpoint = "pIC50"
reported_measurement = 4.54

[[record]]
smiles_entry = "CC1=C(CO[Si](C)(C)C(C)(C)C)C(=O)O[C@@H]([C@@H](C)[C@H]2CC[C@H]3[C@@H]4C[C@H]5O[C@]56[C@@H](O)C=CC(=O)[C@]6(C)[C@H]4CC[C@]23C)C1"
target_entity = "HeLa"
recorded_endpoint = "pIC50"
reported_measurement = 6.05

[[record]]
smiles_entry = "CC1=C(CO)C(=O)O[C@@H]([C@@H](C)[C@@]2(O)CC[C@H]3[C@@H]4C[C@H]5O[C@]56[C@@H](O)C=CC(=O)[C@]6(C)[C@H]4CC[C@@]32C)C1"
target_entity = "HeLa"
recorded_endpoint = "pIC50"
reported_measurement = 4.75

[[record]]
smiles_entry = "CC1=C(CO)C(=O)O[C@@H]([C@@H](C)[C@H]2CC[C@H]3[C@@H]4C[C@H]5O[C@]56[C@@H](O)C=CC(=O)[C@]6(C)[C@H]4CC[C@]23C)C1"
target_entity = "HeLa"
recorded_endpoint = "pIC50"
reported_measurement = 5.52

[[record]]
smiles_entry = "CC1=C(CO)C(=O)O[C@@H](/C(C)=C2\\[C@@H](O)C[C@H]3[C@@H]4C[C@H]5O[C@]56[C@@H](O)C=CC(=O)[C@]6(C)[C@H]4CC[C@]23C)C1"
target_entity = "HeLa"
recorded_endpoint = "pIC50"
reported_measurement = 4.40

